Reported viability, T/C by item:
Tested on: 362531-283-R-J2-PDC complex spheroid viability
protocol.description: Anticancer human tumor 362531-283-R-J2-PDC patient-derived colon adenocarcinoma cell line growth inhibition [RAS]
condition.description: second compound 3.16 µM; first compound 1 µM; stronger effect = lower value

compound	viability, T/C / %
C[C@@H](NC(=O)c1ncnc(N)c1Cl)c1ncc(C(=O)Nc2cc(C(F)(F)F)c(Cl)cn2)s1 + C#Cc1c(F)ccc2cc(O)cc(-c3ncc4c(N5CC6CCC(C5)N6)nc(OCC56CCCN5CC(F)C6)nc4c3F)c12	74.1
C=CC(=O)N1CCN(c2nc(OCC3CCCN3C)nc3c(F)c(-c4nc(N)cc(C)c4C(F)(F)F)c(Cl)cc23)C(C)C1 (configuration not stated) + C#Cc1c(F)ccc2cc(O)cc(-c3ncc4c(N5CC6CCC(C5)N6)nc(OCC56CCCN5CC(F)C6)nc4c3F)c12	71.7

----------
System: 362531-283-R-J2-PDC complex spheroid viability
protocol.description: Anticancer human tumor 362531-283-R-J2-PDC cell line growth inhibition [RAS];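 note: spheroids exposed to the agents for 7 days before readout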;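 for viability, T/C: luminescence viability as percent of DMSO vehicle control wells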
condition.description: second compound 0.03 µM; first compound 1 µM; stronger effect = lower value
From the text: RAS pathway inhibitors in Combinations in Complex Spheroids A high-throughput screen of multi-cell type tumor spheroids was designed to identify active combinations of RAS pathway inhibitors and targeted small molecules. Complex spheroids include a stromal component modeled by human endothelial cells (HUVEC) and fibroblasts modeled by human mesenchymal stem cells (MSCs). […] Compounds. […] If the clinical Cmax for an agent had not been determined, the highest concentration tested was 10 microM. […]
Reported viability, T/C by item:
result.type: viability, T/C (%)

molecule	system.under.test	meas.value
Nc1ccn(C2OC(CO)C(O)C2(F)F)c(=O)n1 (stereo unspecified) + CCn1c(-c2cccnc2C(C)OC)c2c3cc(ccc31)N1CCOC(CC(NC(=O)C(C(C)C)N(C)C(=O)C3(F)CCN(C(=O)C#CC(C)(C)N(C)C)CC3)C(=O)N3CCCC(N3)C(=O)OCC(C)(C)C2)C1	362531-283-R-J2-PDC complex spheroid viability	27.6
C=CC(=O)N1CCN(c2nc(OCC3CCCN3C)nc3c(F)c(-c4nc(N)cc(C)c4C(F)(F)F)c(Cl)cc23)C(C)C1 (stereo unspecified) + CCn1c(-c2cccnc2C(C)OC)c2c3cc(ccc31)N1CCOC(CC(NC(=O)C(C(C)C)N(C)C(=O)C3(F)CCN(C(=O)C#CC(C)(C)N(C)C)CC3)C(=O)N3CCCC(N3)C(=O)OCC(C)(C)C2)C1	362531-283-R-J2-PDC complex spheroid viability	106
CC(C)NCC(C(=O)N1CCN(c2ncnc3c2C(C)CC3O)CC1)c1ccc(Cl)cc1 (stereo unspecified) + CCn1c(-c2cccnc2C(C)OC)c2c3cc(ccc31)N1CCOC(CC(NC(=O)C(C(C)C)N(C)C(=O)C3(F)CCN(C(=O)C#CC(C)(C)N(C)C)CC3)C(=O)N3CCCC(N3)C(=O)OCC(C)(C)C2)C1	362531-283-R-J2-PDC complex spheroid viability	86.2
O=C(c1ccc(F)c(F)c1Nc1ccc(I)cc1F)N1CC(O)([C@@H]2CCCCN2)C1 + CCn1c(-c2cc(N3CCN(C)CC3)cnc2C(C)OC)c2c3cc(ccc31)-c1csc(n1)CC(NC(=O)C1CC1C)C(=O)N1CCCC(N1)C(=O)OCC(C)(C)C2	362531-283-R-J2-PDC complex spheroid viability	5.79
CC1(O)CCCC1n1c(=O)c(C(F)F)cc2cnc(NC3CCN(S(C)(=O)=O)CC3)nc21 (stereo unspecified) + CCn1c(-c2cc(N3CCN(C)CC3)cnc2C(C)OC)c2c3cc(ccc31)-c1csc(n1)CC(NC(=O)C1CC1C)C(=O)N1CCCC(N1)C(=O)OCC(C)(C)C2	362531-283-R-J2-PDC complex spheroid viability	87
CC(=O)OC12COC1CC(O)C1(C)C(=O)C(O)C3=C(C)C(OC(=O)C(O)C(NC(=O)OC(C)(C)C)c4ccccc4)CC(O)(C(OC(=O)c4ccccc4)C21)C3(C)C (stereo unspecified) + CCn1c(-c2cc(N3CCN(C)CC3)cnc2C(C)OC)c2c3cc(ccc31)-c1csc(n1)CC(NC(=O)C1CC1C)C(=O)N1CCCC(N1)C(=O)OCC(C)(C)C2	362531-283-R-J2-PDC complex spheroid viability	7.82

----------
Reported viability, T/C by item:
Tested on: 362531-283-R-J2-PDC complex spheroid viability
protocol.description: Anticancer human tumor 362531-283-R-J2-PDC cell line growth inhibition [RAS];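 note: spheroids exposed to the agents for 7 days before readout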;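 for viability, T/C: luminescence viability as percent of DMSO vehicle control wells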
condition.description: second compound 0.01 µM; first compound 0.1 µM; stronger effect = lower value

molecule	viability, T/C (%)
CC(C)n1nc(-c2ccc3oc(N)nc3c2)c2c(N)ncnc21 + C=CC(=O)N1CCN(c2nc(OCC3CCCN3C)nc3c(F)c(-c4nc(N)cc(C)c4C(F)(F)F)c(Cl)cc23)C(C)C1	89.7
CCN1CCN(Cc2ccc(Nc3ncc(F)c(-c4cc(F)c5nc(C)n(C(C)C)c5c4)n3)nc2)CC1 + C=CC(=O)N1CCN(c2nc(OCC3CCCN3C)nc3c(F)c(-c4nc(N)cc(C)c4C(F)(F)F)c(Cl)cc23)C(C)C1	78.3
NC1c2ccccc2OC12CCN(c1cnc3c(N4CCCc5ncccc54)n[nH]c3n1)CC2 (stereo not drawn) + C=CC(=O)N1CCN(c2nc(OCC3CCCN3C)nc3c(F)c(-c4nc(N)cc(C)c4C(F)(F)F)c(Cl)cc23)C(C)C1	82.2

----------
Reported viability, T/C by item:
System: 362531-283-R-J2-PDC complex spheroid viability
protocol.description: Anticancer human tumor 362531-283-R-J2-PDC cell line growth inhibition [RAS];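 note: spheroids exposed to the agents for 7 days before readout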;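 for viability, T/C: luminescence viability as percent of DMSO vehicle control wells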
condition.description: second compound 0.003 µM; first compound 0.1 µM; stronger effect = lower value

compound	unit.label	viability, T/C
CC1(O)CCCC1n1c(=O)c(C(F)F)cc2cnc(NC3CCN(S(C)(=O)=O)CC3)nc21 (configuration not stated) + CCn1c(-c2cccnc2C(C)OC)c2c3cc(ccc31)N1CCOC(CC(NC(=O)C(C(C)C)N(C)C(=O)C3(F)CCN(C(=O)C#CC(C)(C)N(C)C)CC3)C(=O)N3CCCC(N3)C(=O)OCC(C)(C)C2)C1	%	92.1
CC(=O)OC12COC1CC(O)C1(C)C(=O)C(O)C3=C(C)C(OC(=O)C(O)C(NC(=O)OC(C)(C)C)c4ccccc4)CC(O)(C(OC(=O)c4ccccc4)C21)C3(C)C (configuration not stated) + CCn1c(-c2cc(N3CCN(C)CC3)cnc2C(C)OC)c2c3cc(ccc31)-c1csc(n1)CC(NC(=O)C1CC1C)C(=O)N1CCCC(N1)C(=O)OCC(C)(C)C2	%	92.7
CC(C)n1nc(-c2ccc3oc(N)nc3c2)c2c(N)ncnc21 + CCn1c(-c2cccnc2C(C)OC)c2c3cc(ccc31)N1CCOC(CC(NC(=O)C(C(C)C)N(C)C(=O)C3(F)CCN(C(=O)C#CC(C)(C)N(C)C)CC3)C(=O)N3CCCC(N3)C(=O)OCC(C)(C)C2)C1	%	46.2
C[C@@H](NC(=O)c1ncnc(N)c1Cl)c1ncc(C(=O)Nc2cc(C(F)(F)F)c(Cl)cn2)s1 + CCn1c(-c2cc(N3CCN(C)CC3)cnc2C(C)OC)c2c3cc(ccc31)-c1csc(n1)CC(NC(=O)C1CC1C)C(=O)N1CCCC(N1)C(=O)OCC(C)(C)C2	%	104
C=CC(=O)Nc1cc(Nc2nccc(-c3cn(C)c4ccccc34)n2)c(OC)cc1N(C)CCN(C)C + CCn1c(-c2cccnc2C(C)OC)c2c3cc(ccc31)N1CCOC(CC(NC(=O)C(C(C)C)N(C)C(=O)C3(F)CCN(C(=O)C#CC(C)(C)N(C)C)CC3)C(=O)N3CCCC(N3)C(=O)OCC(C)(C)C2)C1	%	98.6
C=CC(=O)N1CCN(c2nc(OCC3CCCN3C)nc3c(F)c(-c4nc(N)cc(C)c4C(F)(F)F)c(Cl)cc23)C(C)C1 (configuration not stated) + CCn1c(-c2cccnc2C(C)OC)c2c3cc(ccc31)N1CCOC(CC(NC(=O)C(C(C)C)N(C)C(=O)C3(F)CCN(C(=O)C#CC(C)(C)N(C)C)CC3)C(=O)N3CCCC(N3)C(=O)OCC(C)(C)C2)C1	%	92.4
CCC(CC)c1cc(NC2CCC(N)C2)n2nccc2n1 (configuration not stated) + CCn1c(-c2cccnc2C(C)OC)c2c3cc(ccc31)N1CCOC(CC(NC(=O)C(C(C)C)N(C)C(=O)C3(F)CCN(C(=O)C#CC(C)(C)N(C)C)CC3)C(=O)N3CCCC(N3)C(=O)OCC(C)(C)C2)C1	%	101

----------
Reported pIC50 by item:
Tested on: 362531-283-R-J2-PDC complex spheroid viability
protocol.description: Anticancer human tumor 362531-283-R-J2-PDC cell line growth inhibition [RAS];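 note: spheroids exposed to the agents for 7 days before readout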
condition.description: curve of first compound; second compound 10 µM
pIC50: −log10 of the molar value.

molecule	system.under.test	pIC50
CC1(C)CCC(Nc2ncc(C(F)(F)F)c(-c3c[nH]c4c(P(C)(C)=O)c(C#N)ccc34)n2)CN1 (stereo not given) + C#Cc1c(F)ccc2cc(O)cc(-c3ncc4c(N5CC6CCC(C5)N6)nc(OCC56CCCN5CC(F)C6)nc4c3F)c12	362531-283-R-J2-PDC complex spheroid viability	< 6.52
CC(Nc1ccc2c(c1)OCCn1cc(N3C(=O)OCC3C(F)F)nc1-2)C(N)=O (stereo not given) + C#Cc1c(F)ccc2cc(O)cc(-c3ncc4c(N5CC6CCC(C5)N6)nc(OCC56CCCN5CC(F)C6)nc4c3F)c12	362531-283-R-J2-PDC complex spheroid viability	7.37
Cc1nc(N2CCC3(CC2)COC(C)C3N)c(CO)nc1Sc1ccnc(N)c1Cl (stereo not given) + C#Cc1c(F)ccc2cc(O)cc(-c3ncc4c(N5CC6CCC(C5)N6)nc(OCC56CCCN5CC(F)C6)nc4c3F)c12	362531-283-R-J2-PDC complex spheroid viability	> 7.50
Nc1ccn(C2OC(CO)C(O)C2(F)F)c(=O)n1 (stereo not given) + C#Cc1c(F)ccc2cc(O)cc(-c3ncc4c(N5CC6CCC(C5)N6)nc(OCC56CCCN5CC(F)C6)nc4c3F)c12	362531-283-R-J2-PDC complex spheroid viability	> 8.50
CC1(O)CCCC1n1c(=O)c(C(F)F)cc2cnc(NC3CCN(S(C)(=O)=O)CC3)nc21 (stereo not given) + C#Cc1c(F)ccc2cc(O)cc(-c3ncc4c(N5CC6CCC(C5)N6)nc(OCC56CCCN5CC(F)C6)nc4c3F)c12	362531-283-R-J2-PDC complex spheroid viability	> 7.50
